// reported Maximum inhibition observed in olaparib resistant A2780 cells for each item listed
# Test system: olaparib resistant A2780 ovarian cancer cells
# Experiment: CellTiter Glo proliferation inhibition, olaparib resistant A2780 cells, single agents
# Type: cell-based
# Condition Summary: concentration range 0.06 nM to 30,000 nM

Compound: O=C(c1cc(Cc2n[nH]c(=O)c3ccccc23)ccc1F)N1CCN(C(=O)C2CC2)CC1 [Olaparib, olaparib]
Observed Result: 23%

Compound: NC(=O)c1cccc2cn(-c3ccc([C@@H]4CCCNC4)cc3)nc12 [Niraparib, niraparib]
Observed Result: 47%

Compound: Cn1ncnc1[C@H]1c2n[nH]c(=O)c3cc(F)cc(c23)N[C@@H]1c1ccc(F)cc1 [Talazoparib, talazoparib]
Observed Result: 66%

Next compound, Maximum inhibition observed in olaparib resistant A2780 cells to be filled in.
Any idea what its Maximum inhibition observed in olaparib resistant A2780 cells is? The compound is CC(=O)OC[C@H]1O[C@@H]([S-])[C@H](OC(C)=O)[C@@H](OC(C)=O)[C@@H]1OC(C)=O.CCP(CC)CC.[Au+] [Auranofin, auranofin] 100%

---

# Test system: wildtype A2780 ovarian cancer cells
# Experiment: CellTiter Glo proliferation inhibition, wild-type A2780 cells
# Assay type: cell-based
# Condition Summary: wildtype A2780; test conc. 1,111.11 nM
Observable: Mean Inhibition (n = 3) (%)
Please state the figure in %; there is no need to write the unit.

# example entries with known answers
Compound: CC(=O)OC[C@H]1O[C@@H]([S-])[C@H](OC(C)=O)[C@@H](OC(C)=O)[C@@H]1OC(C)=O.CCP(CC)CC.[Au+] [Auranofin, auranofin]
Target Under Test: wildtype A2780 ovarian cancer cells
Mean Inhibition (n = 3), %: 98.39
//
Compound: Cn1ncnc1[C@H]1c2n[nH]c(=O)c3cc(F)cc(c23)N[C@@H]1c1ccc(F)cc1 [Talazoparib, talazoparib]
Target Under Test: wildtype A2780 ovarian cancer cells
Mean Inhibition (n = 3), %: 71.38
//
Compound: NC(=O)c1cccc2cn(-c3ccc([C@@H]4CCCNC4)cc3)nc12 [Niraparib, niraparib]
Target Under Test: wildtype A2780 ovarian cancer cells
Mean Inhibition (n = 3), %: 25.03

Next compound, Mean Inhibition (n = 3) to be filled in.
Any idea what its Mean Inhibition (n = 3) is? The compound is O=C(c1cc(Cc2n[nH]c(=O)c3ccccc23)ccc1F)N1CCN(C(=O)C2CC2)CC1 [Olaparib, olaparib] 24.63

Reference for the values: patent US20220000911A1
